Source listed as PubChem BioAssay AID624167.

- Test system: PEG-3
- Assay remarks: Peg3 promoter luciferase inhibitors, potency, dose response, cell-based, HeLa, CREF/GAPDH counter-screen panel (AID 624167)
- Particulars: HeLa PEG-Prom luciferase reporter, overnight, CREF/GAPDH counter-screens, run 1, dose range 1, individual replicate IC50 per panel
pIC50: −log10 of the molar value.
Measured endpoint: pIC50

>>> readout_number("O=C(O)c1cccc(COc2ccc(CO)cc2Cl)c1")
6.69
>>> readout_number("O=C(N/N=C\\c1c(O)ccc2ccccc12)c1ccc(Cn2cccn2)o1")
5.51
>>> readout_number("Cc1ccc2nc(-c3ccc(Br)cc3)cn2c1")
5.50
>>> readout_number("COc1cc2nc(CN3CC=C(c4ccccc4)CC3)[nH]c(=O)c2cc1OC")
5.11
>>> readout_number("O=S(=O)(c1cccc(F)c1)N1CCN(c2nc(-c3cccnc3)nc3ccccc23)CC1")
4.99
>>> readout_number("COc1cccc(/C=C2/Sc3ccc(C(=O)NCCCN4CCCC4)cc3NC2=O)c1")
4.67
>>> readout_number("Cc1oc(-c2ccc3c(c2)OCCO3)cc1C(=O)O")
5.51
>>> readout_number("COc1cccc(-c2nnc3n2N=C(C(C)(C)C)CS3)c1")
4.85

###

- Test system: PEG-3
- Assay remarks: Peg3 promoter luciferase inhibitors, potency, dose response, cell-based, HeLa, CREF/GAPDH counter-screen panel (AID 624167)
- Particulars: HeLa PEG-Prom luciferase reporter, overnight, CREF/GAPDH counter-screens, run 1, dose range 1, individual replicate IC50 per panel
Labelling: IC50 reported below 10 µM becomes satisfied; at or above becomes not satisfied.

>>> class_assignment("CN(C)c1c([N+](=O)[O-])cc(N2C(=O)C=CC2=O)cc1[N+](=O)[O-]")
"satisfied"
>>> class_assignment("COC(=O)Cc1[nH]n(-c2nc3ccccc3s2)c(=O)c1C(C)=Nc1ccc(Cl)cc1")
"not satisfied"
>>> class_assignment("COc1ccc(S(=O)(=O)/N=C2\\C=C(Nc3ccc(O)cc3)C(=O)c3ccccc32)cc1")
"satisfied"
>>> class_assignment("CC(C)(c1ccccc1)c1ccc(OCC(O)CNC2CCN(Cc3ccccc3)CC2)cc1 (stereo not drawn)")
"not satisfied"
>>> class_assignment("CN(C)C(=O)c1cccc(-c2cnc3c(NC=O)cc(-c4cccc(C(F)(F)F)c4)cn23)c1")
"not satisfied"
>>> class_assignment("CCOc1cc(/C=N/Nc2nc(-c3cccc(S(=O)(=O)N4CCCC4)c3)cs2)ccc1O")
"not satisfied"
>>> class_assignment("CCOC(=O)c1cnc(Nc2nc3ccccc3o2)nc1C")
"satisfied"
>>> class_assignment("COCCn1c(C)cc(C(=O)COC(=O)c2cccc(O)c2)c1C")
"not satisfied"
>>> class_assignment("CN(CCOc1ccc(Cl)cc1)C(=O)c1cc(-c2ccco2)nc2ccccc12")
"not satisfied"
>>> class_assignment("CN(C)CCNc1ncnc2c1sc1nc(N3CCCC3)c3c(c12)CC(C)(C)OC3")
"not satisfied"
>>> class_assignment("CC(=O)OC1(C)CC(C)C(=O)C(C(O)CC2CC(=O)NC(=O)C2)C1 (stereo not drawn)")
"satisfied"
>>> class_assignment("O=C(N/N=C/c1cc([N+](=O)[O-])ccc1O)c1ccc(COc2ccc3c(c2)CCC3)o1")
"satisfied"
>>> class_assignment("O=C(CCCN1C(=O)/C(=C/c2ccccc2Cl)SC1=S)NNC(=O)c1ccccc1Cl")
"not satisfied"
>>> class_assignment("O=C(N/N=C/c1c(O)ccc2ccccc12)c1ccc(CO)nc1")
"satisfied"
>>> class_assignment("C(=NN1CCCCCC1)c1ccc2ccccc2n1")
"satisfied"
>>> class_assignment("CC(NC(=O)c1ccc([N+](=O)[O-])o1)C12CC3CC(CC(C3)C1)C2 (stereo not drawn)")
"not satisfied"
>>> class_assignment("OCCN1CCN(C2CCC(c3ccc(F)cc3)c3ccc(F)cc32)CC1 (stereo not drawn)")
"not satisfied"
>>> class_assignment("O=Nc1c(O)ccc2cc(S(=O)(=O)O)ccc12")
"satisfied"
>>> class_assignment("Cc1ccc(C(=O)N2CCN(c3ccc([N+](=O)[O-])c(NCc4cccnc4)c3)CC2)cc1")
"not satisfied"
>>> class_assignment("COCOCCn1cc(CN2CCS(=O)(=O)N(Cc3ccc(-c4ccc(Cl)c(Cl)c4)cc3)C(C(C)C)C2=O)nn1 (stereo not drawn)")
"not satisfied"
>>> class_assignment("Oc1[nH]c2ccc(Br)cc2c1N=NC(=S)N1CCOCC1")
"satisfied"
>>> class_assignment("CCc1ccc2c(c1)Sc1ccccc1CC2N1CCN(C)CC1 (stereo not drawn)")
"not satisfied"
>>> class_assignment("Cc1ccc2nc(-c3ccc4c(c3)OCCO4)cn2c1")
"satisfied"
>>> class_assignment("COc1ccc(-c2cc(C(=O)N3CCN(c4ncccn4)CC3)c3ccccc3n2)c(OC)c1")
"not satisfied"
>>> class_assignment("CCn1c(C)cc(C(=O)COC(=O)c2ccccc2[N+](=O)[O-])c1C")
"not satisfied"
>>> class_assignment("CCc1ccc(/C=C2\\SC(=S)N(CCCC(=O)Nc3cc(C)on3)C2=O)cc1")
"satisfied"
>>> class_assignment("CCCN(CCC)CCCNC(=S)Nc1ccc2nc(N3CCCC3)cc(C)c2c1")
"not satisfied"
